I'd be grateful if you could share measured log10 Ki for these entries.
biological target: h-GABAA α1β2γ1 (Homo sapiens, UniProt P14867+Q8N1C3); experiment: Radioligand binding assay, [3H]RO7239181 competition, HEK293F membranes
Kindly note that the scale is log10 and the underlying Ki is in µM.

Find the measured log10 Ki: item Fc1cccnc1C1=NCc2nnc(-c3ccncn3)n2-c2ccc(Cl)c(Cl)c21 , target or system h-GABAA α1β2γ1 (Homo sapiens, UniProt P14867+Q8N1C3).
-0.88

API: value(readout=log10 Ki, system=h-GABAA α1β2γ1 (Homo sapiens, UniProt P14867+Q8N1C3)) for record Cl.NCc1nnc2n1-c1ccc(Br)c(Cl)c1C(c1c(F)cccc1F)=NC2 [Example 36, hydrochloride]
-1.92

Value wanted: log10 Ki (h-GABAA α1β2γ1 (Homo sapiens, UniProt P14867+Q8N1C3)) of entry Fc1cccnc1C1=NCc2nnc(C3CC3)n2-c2ccc(Cl)c(Cl)c21
-0.96

What is its log10 Ki for h-GABAA α1β2γ1 (Homo sapiens, UniProt P14867+Q8N1C3)? Entry: Fc1cccc(F)c1C1=NCc2nnc(-c3cccnn3)n2-c2ccc(Br)c(Br)c21
-2.14

Give h-GABAA α1β2γ1 (Homo sapiens, UniProt P14867+Q8N1C3) log10 Ki for Cc1nnc2n1-c1ccc(Br)c(Cl)c1C(c1ncccc1F)=NC2
-1.36

For h-GABAA α1β2γ1 (Homo sapiens, UniProt P14867+Q8N1C3), provide log10 Ki of Fc1cccc(F)c1C1=NCc2nncn2-c2ccc(I)c(Cl)c21 please.
-2.25
